Where do these numbers come from? They come from patent US20210122730A1.

Molecular target: GR (Homo sapiens)
Construct: expressed in transfected cells; host or cells: CHO-K1
Sequence (P04150 whole entry): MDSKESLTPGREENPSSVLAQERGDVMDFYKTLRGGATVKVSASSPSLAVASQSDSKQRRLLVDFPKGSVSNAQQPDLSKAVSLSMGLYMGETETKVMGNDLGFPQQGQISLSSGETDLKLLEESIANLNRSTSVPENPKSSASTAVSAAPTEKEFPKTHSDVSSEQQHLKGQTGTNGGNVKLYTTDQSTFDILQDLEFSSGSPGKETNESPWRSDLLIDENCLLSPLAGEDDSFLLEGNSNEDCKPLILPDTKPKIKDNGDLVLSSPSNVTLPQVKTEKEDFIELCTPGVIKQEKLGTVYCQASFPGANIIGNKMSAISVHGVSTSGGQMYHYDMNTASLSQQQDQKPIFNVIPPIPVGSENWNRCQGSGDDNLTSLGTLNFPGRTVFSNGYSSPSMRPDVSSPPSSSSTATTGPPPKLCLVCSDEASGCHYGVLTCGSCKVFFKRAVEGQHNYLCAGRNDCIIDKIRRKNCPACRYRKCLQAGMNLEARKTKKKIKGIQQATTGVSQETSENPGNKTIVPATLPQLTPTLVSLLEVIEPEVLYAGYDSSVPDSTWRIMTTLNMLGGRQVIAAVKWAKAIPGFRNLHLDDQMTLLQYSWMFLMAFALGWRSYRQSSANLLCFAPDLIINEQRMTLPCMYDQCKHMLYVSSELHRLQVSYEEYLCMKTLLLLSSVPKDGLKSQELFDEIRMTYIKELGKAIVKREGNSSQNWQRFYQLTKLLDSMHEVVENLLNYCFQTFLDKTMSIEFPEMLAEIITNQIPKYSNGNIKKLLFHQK
Assay: In Vitro GR Luciferase Reporter Assay (antagonist mode, CHO-K1-GR-MMTV-Luc reporter cells)
Assay type: cell-based
Conditions: antagonist mode, 10 nM Dexamethasone
Experimental Endpoint: IC50

Known results for molecules:
1. C[C@H]([C@H]1CCC2=Cc3c(cnn3-c3ccc(F)cc3)C[C@]2(C(=O)c2cc(C(F)(F)F)ccn2)C1)S(=O)(=O)c1cnn(C)c1 (single isomer, unassigned) [Example 121]; ≤ 0.1 µM
2. CCN([C@H]1CCC2=Cc3c(cnn3-c3ccc(F)cc3)C[C@]2(C(=O)c2ccc(C3CC3)cn2)C1)S(=O)(=O)c1cnn(C)c1; ≤ 0.1 µM

Entry Cn1cnc(S(=O)(=O)N(CC(F)F)[C@H]2CCC3=Cc4c(cnn4-c4ccc(F)cc4)C[C@]3(C(=O)c3ncc(C(F)(F)F)s3)C2)c1 , system GR (Homo sapiens): what IC50 was measured?
≤ 0.1 µM
